# System: TK-10 renal
# ASSAY_NOTES: NCI tumour cell line growth inhibition, 48 h
ENDPOINT: TGI

[Q] What TGI value was documented for this compound, O=C(CC12CC3CC(CC(C3)C1)C2)NCCOCCOCCNC(=O)c1cc2c(o1)C(=O)c1ccccc1C2=O ?
[A] 5.27 µM

[Q] Input O=C(Cn1ccnc1[N+](=O)[O-])N(CCO)CCO
[A] > 250 µM

[Q] Input COc1ccc(CN2C(=O)CCC/C=C\[C@H]2CI)cc1
[A] 25 µM

[Q] Input Nc1ccccc1C#C/C=C\C#Cc1ccc(F)cc1F
[A] 30.4 µM

[Q] Input C=C(NC(=O)C(=C)NC(=O)c1csc(C2=NC3c4csc(n4)C4NC(=O)c5csc(n5)C(C(C)(O)C(C)O)NC(=O)C5CSC(=N5)/C(=C/C)NC(=O)C(C(C)O)NC(=O)c5csc(n5)C3(CC2)NC(=O)C(C)NC(=O)C(=C)NC(=O)C(=C)NC(=O)C(C(C)C)NC2C=Cc3c(C(C)O)cc(nc3C2O)C(=O)OC4C)n1)C(N)=O (centres undefined)
[A] > 94.8 µM

[Q] Input O=C(CCN1CCCCC1CCO)Nc1ccc2c(c1)C(=O)c1ccc(NC(=O)CCN3CCCCC3CCO)cc1C2=O (centres undefined)
[A] 14.6 µM

[Q] Input O=S(=O)(c1cccc(C(F)(F)F)c1)N1c2ccccc2-n2cccc2C1c1cccnc1 (centres undefined)
[A] > 85.1 µM

[Q] Input COc1nc(OC)c2c(=O)oc(-c3ccccc3)cc2n1
[A] > 100 µM

[Q] Input O=C(NNc1nc2cc(F)ccc2n2c(CN3CCOCC3)ccc12)c1ccccc1
[A] 7.07 µM

[Q] Input O=C1CC(NC(=O)C(F)(F)F)c2c(Br)sc(N3CCC(c4ccccc4)CC3)c21 (centres undefined)
[A] 97.7 µM

[Q] Input Cc1ccc(-c2cc(-c3ccco3)nc(N)n2)o1
[A] > 100 µM

[Q] Input c1cc(-c2cscc2-c2ccsc2)cs1
[A] > 100 µM

[Q] Input CS(=O)(=O)c1nccc(-c2c(-c3cccc(OCc4ccc(F)cc4)c3)nc3sccn23)n1
[A] > 100 µM

[Q] Input COc1ccc(CNc2cc(OC)cc(OC)c2)cc1
[A] > 100 µM

[Q] Input COC(=O)[C@]1(C)CCCn2c(=O)n(-c3ccccc3)c(=O)n21
[A] > 100 µM

[Q] Input COc1cc2c(cc1OC)C(=O)N(c1ccc(O)cc1)C2
[A] > 100 µM

[Q] Input Nc1c(Br)cc(-c2cc(Br)c(N)c(Br)c2)cc1Br
[A] > 100 µM

[Q] Input COc1ccc(C2CC(c3cc4c(C)c(C(=O)c5ccccc5)oc4cc3O)=Nc3ccccc3S2)cc1OC (centres undefined)
[A] > 100 µM

[Q] Input Cc1nc2sc(C(=O)Nc3cccc4ccccc34)c(N)c2cc1C(C)O (centres undefined)
[A] > 50 µM
